Entries and their self-aminoacylation values follow.
Test system: biotinyl-Leu-oxazolone
Assay: self-aminoacylation, catalytic enhancement (BLO) (fold over background); higher = more active; k-Seq, kA / k0A0; sequences stand for … in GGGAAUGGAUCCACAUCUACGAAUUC…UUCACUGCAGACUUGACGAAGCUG
This sample holds only a part of the variants without activity.
quantity: self-aminoacylation

- AAGAUUGCAAAUAGUCGCAAG [Fam3.1 aminoacylation ribozyme variant]: 1.58
- AUUACCCUGGUCAUCAAGGGA [Fam2.1 aminoacylation ribozyme variant]: 0.752
- CAGUUUGCUAAUAGUCGCAAG [Fam3.1 aminoacylation ribozyme variant]: 1.35
- AUUAACCUAGGUCAUCUGGUG [Fam2.2 aminoacylation ribozyme variant]: 3.34
- AUUACCUUGAUCAUCGAGUGA [Fam2.1 aminoacylation ribozyme variant]: 8.21
- CUUACCCUGGUCAUCGAAUGA [Fam2.1 aminoacylation ribozyme variant]: 0.937
- CCACACUCCAAGCAAUCGGUA [Fam1B.1 aminoacylation ribozyme variant]: 1.27
- AUUCGCCUUGGUCAUCGGGUG [Fam2.2 aminoacylation ribozyme variant]: 9.99
- ACACACCUCAAGCAAUCGGUC [Fam1B.1 aminoacylation ribozyme variant]: 0.763
- GUUCACCUAGGUCAUCCGGUG [Fam2.2 aminoacylation ribozyme variant]: 6.89
- AUCACGCUGGUCAUCGAGUGA [Fam2.1 aminoacylation ribozyme variant]: 5.91
- CCACACUUCAAACAAUCGGCC [Fam1B.1 aminoacylation ribozyme variant]: 1.61

====

# reported self-aminoacylation; entries follow
System: biotinyl-Ile-oxazolone
Assay: self-aminoacylation, catalytic enhancement (BIO) (fold over background); higher = more active; k-Seq, kA / k0A0; sequences stand for … in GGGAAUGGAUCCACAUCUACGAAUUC…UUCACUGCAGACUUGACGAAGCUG
This sample holds only a part of the variants without activity.
quantity: self-aminoacylation

- CCACAUUUCAAGCAUUCGGUC [Fam1B.1 aminoacylation ribozyme variant]: 1.92
- ACAGACUUCAAGCAAUCGGUC [Fam1B.1 aminoacylation ribozyme variant]: 2.39
- AAGUUUGCUAAUAGUCGCAGU [Fam3.1 aminoacylation ribozyme variant]: 1.33
- AAGGUUUCUAAUAGUCGCAAG [Fam3.1 aminoacylation ribozyme variant]: 1.64
- AUCACGCUGGUCAUCGAGUGA [Fam2.1 aminoacylation ribozyme variant]: 4.36

====

Test system: biotinyl-Met-oxazolone
Assay: self-aminoacylation, catalytic enhancement (BMO) (fold over background); higher = more active; k-Seq, kA / k0A0; sequences stand for … in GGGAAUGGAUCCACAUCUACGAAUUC…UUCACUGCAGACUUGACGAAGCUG
This sample holds only a part of the variants without activity.
y means recorded self-aminoacylation is 2 or above; n means it is below 2.

• CCACACUUCAAACAAUCGGUA [Fam1B.1 aminoacylation ribozyme variant] = n
• UCACACUUCAAGCAAUCGGUG [Fam1B.1 aminoacylation ribozyme variant] = y
• AAUACCCUGGUCAUAGAGUGA [Fam2.1 aminoacylation ribozyme variant] = y
• AAGUAUGCCAAUAGUCGCAAG [Fam3.1 aminoacylation ribozyme variant] = n
• CUACUCCAAACAAUUGGUCUG [Fam1A.1 aminoacylation ribozyme variant] = n
• AUUAACCUGGUCAUCGAGUGG [Fam2.1 aminoacylation ribozyme variant] = n
• CGACUUCAAAGAAUCGGUCUG [Fam1A.1 aminoacylation ribozyme variant] = n
• AAGUUUGCUAUUAGUCGCCAG [Fam3.1 aminoacylation ribozyme variant] = n
• AUUCACGUAGGUCAGCGGGUG [Fam2.2 aminoacylation ribozyme variant] = y
• AAGUUUGGUAAUAGUCGCAAG [Fam3.1 aminoacylation ribozyme variant] = n
• AUUACCCUGGUCUUCGACUGA [Fam2.1 aminoacylation ribozyme variant] = n
• AUUACCCUGCUCAUCGACUGA [Fam2.1 aminoacylation ribozyme variant] = n
• ACGAUUGCUAAUAGUCGCAAG [Fam3.1 aminoacylation ribozyme variant] = n
• CGACACUUCCAGCAAUCGGUC [Fam1B.1 aminoacylation ribozyme variant] = n
• AAGUUUGCUAAUAGUCGCAGU [Fam3.1 aminoacylation ribozyme variant] = n
• AAGUUUGCUAAUAGUCGCGAG [Fam3.1 aminoacylation ribozyme variant] = n
• CUACUUCAAACAAACAGUCUG [Fam1A.1 aminoacylation ribozyme variant] = n
• AUCCACCUAGGUCAUCGAGUG [Fam2.2 aminoacylation ribozyme variant] = y
• AUUCACCUACGGCAUCGGGUG [Fam2.2 aminoacylation ribozyme variant] = y
• UCACACUUCAAGCUAUCGGUC [Fam1B.1 aminoacylation ribozyme variant] = n
• AAUCUCCUAGGUCAUCGGGUG [Fam2.2 aminoacylation ribozyme variant] = y
• AGGUUUGCUAAUAGUCGCAAG [Fam3.1 aminoacylation ribozyme variant] = n
• CUACUACAAACAAUGGGUCUG [Fam1A.1 aminoacylation ribozyme variant] = n
• AUUCGCGUAGGUCAUCGGGUG [Fam2.2 aminoacylation ribozyme variant] = y
